test system: BT-549 breast; assay: NCI-60 one-dose screen, 48 h (100 = growth as untreated, 0 = no growth, -100 = all killed); details: 10 µM
The panel holds about 83,000 compounds, 20% with a hit somewhere; the sample as a whole holds those more often. Activity calls are given as the source filed them. Rule for the calls: active = growth percent below 10; inactive = the rest.
Answer each item with its documented growth.

COMPOUND	growth
CNC(=O)c1ccccc1CC1(O)c2ccccc2Oc2ccccc21	65% (inactive)
CCCCC/C=N/Nc1nc(C)cc(=O)[nH]1	109% (inactive)
CCCC(=O)Nc1ccc2c(c1)CN1C(=O)c3ccccc3C1=N2	107% (inactive)

Name the reported growth value associated with the compound OCC1OC(OC2C(O)C(CO)OC2(CO)OC2OC(CO)C(O)C(O)C2O)C(O)C(O)C1O (centres undefined)
105% (inactive)
